System: MMP13 in SW1353 cells
Test: OSM/IL-1β signaling assay (MMP13 levels in SW1353 cells);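 further: secreted MMP13 captured by antibody, activated with APMA and its activity read by fluorescence, inhibition scaled between vehicle-treated triggered wells (0%) and untriggered wells (100%)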
Format: cell-based
Conditions: Homo sapiens; SW1353 cells, OSM and IL-1β triggered, MMP13 levels 48 hours after triggering; read-out: MMP13 EC50
pEC50: −log10 of the molar value.
READOUT: pEC50

[[record]]
compound = "O=C(Nc1nc2cccc(-c3ccc(NS(=O)(=O)c4cccnc4)cc3)n2n1)C1CC1 [Compound 64]"
readout = "pEC50"
experimental_value = "< 6.00"

[[record]]
compound = "N#CCc1ccc(NCc2ccc(-c3cccc4nc(NC(=O)C5CC5)nn34)cc2)cc1 [Compound 224]"
readout = "pEC50"
experimental_value = "< 6.00"

[[record]]
compound = "CN1CCC(NC(=O)c2ccc(-c3cccc4nc(NC(=O)C5CC5)nn34)cc2)CC1 [Compound 32]"
readout = "pEC50"
experimental_value = "< 6.00"

[[record]]
compound = "Cc1ccc(COc2ccc(-c3cccc4nc(NC(=O)C5CC5)nn34)cc2)cn1 [Compound 197]"
readout = "pEC50"
experimental_value = "< 6.00"

[[record]]
compound = "CC(=O)N(Cc1ccc(C#N)nc1)c1ccc(-c2cccc3nc(NC(=O)C4CC4)nn23)cc1 [Compound 297]"
readout = "pEC50"
experimental_value = "< 6.00"

[[record]]
compound = "O=C(Nc1nc2cccc(-c3ccc(C(=O)N4CCc5ccccc5C4)cc3)n2n1)C1CC1 [Compound 58]"
readout = "pEC50"
experimental_value = "6.00 to 6.30"

[[record]]
compound = "COc1ccc(NCc2ccc(-c3cccc4nc(NC(=O)C5CC5)nn34)cc2)cn1 [Compound 236]"
readout = "pEC50"
experimental_value = "6.30 to 9.00"

[[record]]
compound = "Cc1cc(COc2ccc(-c3cccc4nc(NC(=O)C5CC5)nn34)cc2)n(C)n1 [Compound 50]"
readout = "pEC50"
experimental_value = "< 6.00"


###

Overview of recorded IC50 for various compounds
Target: Recombinant human JAK1 catalytic domain (Homo sapiens (Human), UniProt P23458)
Sequence (P23458 850-1154): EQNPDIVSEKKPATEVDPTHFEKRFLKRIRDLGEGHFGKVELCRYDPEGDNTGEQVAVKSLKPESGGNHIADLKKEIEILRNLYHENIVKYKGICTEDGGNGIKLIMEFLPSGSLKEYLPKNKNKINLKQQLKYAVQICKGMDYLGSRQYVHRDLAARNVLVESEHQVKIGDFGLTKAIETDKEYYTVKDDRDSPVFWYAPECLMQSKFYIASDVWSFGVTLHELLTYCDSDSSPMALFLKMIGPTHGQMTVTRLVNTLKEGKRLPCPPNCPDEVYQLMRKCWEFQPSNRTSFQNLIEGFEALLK
Test: JAK1 inhibition assay
Assay type: biochemical
Details: semi-quantitative score
Protocol: Plates were washed 6 times with 300 μL per well of a 75 mM phosphoric acid solution and the bottom of the plates was sealed. 40 μL/well of Microscint-20 was added, the top of the plates was sealed and readout was performed using the Topcount (Perkin Elmer). Kinase activity was calculated by subtracting counts per minute (cpm) obtained in the presence of a positive control inhibitor (10 μM staurosporine) from cpm obtained in the presence of vehicle. […]
READOUT: IC50

[[record]]
compound = "Cc1cc(COc2ccc(-c3cccc4nc(NC(=O)C5CC5)nn34)cc2)no1"
readout = "IC50"
experimental_value = "< 100 nM"

[[record]]
compound = "O=C(Nc1nc2cccc(-c3ccc(CN4CCC(O)CC4)cc3)n2n1)C1CC1"
readout = "IC50"
experimental_value = "101 to 500 nM"

[[record]]
compound = "CN(C)C1CCN(C(=O)c2ccc(-c3cccc4nc(NC(=O)C5CC5)nn34)cc2)C1 (stereo not shown)"
readout = "IC50"
experimental_value = "< 100 nM"

[[record]]
compound = "O=C(Nc1nc2cccc(-c3ccc(C(=O)N4CCCC(O)C4)cc3)n2n1)C1CC1 (stereo not shown)"
readout = "IC50"
experimental_value = "< 100 nM"

[[record]]
compound = "O=C(Nc1nc2cccc(-c3ccc(C(=O)N4CCC(CCN5CCOCC5)CC4)cc3)n2n1)C1CC1"
readout = "IC50"
experimental_value = "101 to 500 nM"

[[record]]
compound = "O=C(Nc1nc2cccc(-c3ccc(CC(=O)N4CCC(C(F)(F)F)CC4)cc3)n2n1)C1CC1"
readout = "IC50"
experimental_value = "< 100 nM"

[[record]]
compound = "CN(C)CC1CN(Cc2ccc(-c3cccc4nc(NC(=O)C5CC5)nn34)cc2)C1"
readout = "IC50"
experimental_value = "> 1000 nM"

[[record]]
compound = "O=C(Nc1nc2cccc(-c3ccc(CN4CCN(CC(F)(F)F)CC4)cc3)n2n1)C1CC1"
readout = "IC50"
experimental_value = "< 100 nM"

[[record]]
compound = "N#CC1CCN(Cc2ccc(-c3cccc4nc(NC(=O)C5CC5)nn34)cc2)CC1"
readout = "IC50"
experimental_value = "< 100 nM"

[[record]]
compound = "CC(C)(C)OC(=O)NC1CN(Cc2ccc(-c3cccc4nc(NC(=O)C5CC5)nn34)cc2)C1"
readout = "IC50"
experimental_value = "101 to 500 nM"

[[record]]
compound = "O=C(Nc1nc2cccc(-c3ccc(N4CCOCC4)nc3)n2n1)C1CC1"
readout = "IC50"
experimental_value = "> 1000 nM"

[[record]]
compound = "O=C(Nc1ccc(-c2cccc3nc(NC(=O)C4CC4)nn23)cc1)c1ccc(C(F)(F)F)cc1"
readout = "IC50"
experimental_value = "101 to 500 nM"

[[record]]
compound = "CCCN(CC1CCCO1)C(=O)c1ccc(-c2cccc3nc(NC(=O)C4CC4)nn23)cc1 (stereo not shown)"
readout = "IC50"
experimental_value = "101 to 500 nM"

[[record]]
compound = "CC1CCN(C(=O)c2ccc(-c3cccc4nc(NC(=O)C5CC5)nn34)cc2)CC1"
readout = "IC50"
experimental_value = "< 100 nM"

[[record]]
compound = "O=C(NCc1ccccc1)c1ccc(-c2cccc3nc(NC(=O)C4CC4)nn23)cc1"
readout = "IC50"
experimental_value = "< 100 nM"

[[record]]
compound = "O=C(Nc1nc2cccc(-c3ccc(OCCc4cccnc4)cc3)n2n1)C1CC1"
readout = "IC50"
experimental_value = "101 to 500 nM"


###

Experiment: Microsomal stability, rat liver microsomes
Assay type: in vitro ADME
Conditions: percentage of compound remaining after 60 minutes, 3 μM compound
READOUT: Microsomal Stability Rat (%)

[[record]]
molecule = "O=C(Nc1nc2cccc(-c3ccc(CN4CCS(=O)(=O)CC4)cc3)n2n1)C1CC1"
readout = "Microsomal Stability Rat (%)"
experimental_value = "*** (*** 51-75)"

[[record]]
molecule = "O=C(Nc1nc2cccc(-c3ccc(CNc4ccon4)cc3)n2n1)C1CC1"
readout = "Microsomal Stability Rat (%)"
experimental_value = "*** (*** 51-75)"

[[record]]
molecule = "NC(=O)c1ccc(NCc2ccc(-c3cccc4nc(NC(=O)C5CC5)nn34)cc2)cc1"
readout = "Microsomal Stability Rat (%)"
experimental_value = "**** (**** 76-100)"

[[record]]
molecule = "O=C(Nc1nc2cccc(-c3ccc(CN4CCC(F)(F)CC4)cc3)n2n1)C1CC1"
readout = "Microsomal Stability Rat (%)"
experimental_value = "** (** 26-50)"

[[record]]
molecule = "O=C(Nc1nc2cccc(-c3ccc(C(=O)N4CCC(O)CC4)cc3)n2n1)C1CC1"
readout = "Microsomal Stability Rat (%)"
experimental_value = "**** (**** 76-100)"

[[record]]
molecule = "O=C(Nc1nc2cccc(-c3ccc(OCc4ccccc4)cc3)n2n1)C1CC1"
readout = "Microsomal Stability Rat (%)"
experimental_value = "**** (**** 76-100)"

[[record]]
molecule = "CN(Cc1ccccc1)c1ccc(-c2cccc3nc(NC(=O)C4CC4)nn23)cc1"
readout = "Microsomal Stability Rat (%)"
experimental_value = "* (* 0-25)"

[[record]]
molecule = "CC(Oc1ccc(-c2cccc3nc(NC(=O)C4CC4)nn23)cc1)c1ccccn1 (stereo not drawn)"
readout = "Microsomal Stability Rat (%)"
experimental_value = "** (** 26-50)"

[[record]]
molecule = "CC1CN(C(=O)c2ccc(-c3cccc4nc(NC(=O)C5CC5)nn34)cc2)CC(C)O1 (stereo not drawn)"
readout = "Microsomal Stability Rat (%)"
experimental_value = "**** (**** 76-100)"

[[record]]
molecule = "Cn1cc(-c2ccc(COc3ccc(-c4cccc5nc(NC(=O)C6CC6)nn45)cc3)cn2)cn1"
readout = "Microsomal Stability Rat (%)"
experimental_value = "** (** 26-50)"

[[record]]
molecule = "O=C(COc1ccc(-c2cccc3nc(NC(=O)C4CC4)nn23)cc1)Nc1cccc(F)c1"
readout = "Microsomal Stability Rat (%)"
experimental_value = "* (* 0-25)"

[[record]]
molecule = "O=C(Nc1nc2cccc(-c3ccc(-c4ccccc4)cc3)n2n1)C1CC1"
readout = "Microsomal Stability Rat (%)"
experimental_value = "** (** 26-50)"

[[record]]
molecule = "O=C(c1ccccc1)c1ccc(-c2cccc3nc(NC(=O)C4CC4)nn23)cc1"
readout = "Microsomal Stability Rat (%)"
experimental_value = "** (** 26-50)"

[[record]]
molecule = "N#CC1CCN(C(=O)c2ccc(-c3cccc4nc(NC(=O)C5CC5)nn34)cc2)CC1"
readout = "Microsomal Stability Rat (%)"
experimental_value = "**** (**** 76-100)"

[[record]]
molecule = "O=C(Nc1nc2cccc(-c3ccc(OCc4ccc(-c5cn[nH]c5)nc4)cc3)n2n1)C1CC1"
readout = "Microsomal Stability Rat (%)"
experimental_value = "* (* 0-25)"

[[record]]
molecule = "O=C(Nc1nc2cccc(-c3ccc(CN4CCC(F)CC4)cc3)n2n1)C1CC1"
readout = "Microsomal Stability Rat (%)"
experimental_value = "** (** 26-50)"

[[record]]
molecule = "O=C(Nc1nc2cccc(-c3ccc(NCc4ccccc4)nc3)n2n1)C1CC1"
readout = "Microsomal Stability Rat (%)"
experimental_value = "* (* 0-25)"

[[record]]
molecule = "O=C(N[C@@H]1CCN(Cc2ccccc2)C1)c1ccc(-c2cccc3nc(NC(=O)C4CC4)nn23)cc1"
readout = "Microsomal Stability Rat (%)"
experimental_value = "* (* 0-25)"

[[record]]
molecule = "CC(=O)N(Cc1cccnc1)c1ccc(-c2cccc3nc(NC(=O)C4CC4)nn23)cc1"
readout = "Microsomal Stability Rat (%)"
experimental_value = "* (* 0-25)"

[[record]]
molecule = "O=C(Nc1nc2cccc(-c3ccc(C(=O)N4CCC(O)(Cc5ccccc5)CC4)cc3)n2n1)C1CC1"
readout = "Microsomal Stability Rat (%)"
experimental_value = "** (** 26-50)"

[[record]]
molecule = "COc1ccc(NCc2ccc(-c3cccc4nc(NC(=O)C5CC5)nn34)cc2)cn1"
readout = "Microsomal Stability Rat (%)"
experimental_value = "* (* 0-25)"

[[record]]
molecule = "O=C(Nc1nc2cccc(-c3ccc(NS(=O)(=O)CCc4cccc(F)c4)cc3)n2n1)C1CC1"
readout = "Microsomal Stability Rat (%)"
experimental_value = "* (* 0-25)"

[[record]]
molecule = "O=C(Nc1nc2cccc(-c3ccc(OC4CCCC4)cc3)n2n1)C1CC1"
readout = "Microsomal Stability Rat (%)"
experimental_value = "* (* 0-25)"

[[record]]
molecule = "O=C(Nc1nc2cccc(-c3ccc(C(=O)N4CCC(c5cc6ccccc6[nH]5)CC4)cc3)n2n1)C1CC1"
readout = "Microsomal Stability Rat (%)"
experimental_value = "*** (*** 51-75)"

[[record]]
molecule = "Cc1noc(C)c1CCOc1ccc(-c2cccc3nc(NC(=O)C4CC4)nn23)cc1"
readout = "Microsomal Stability Rat (%)"
experimental_value = "* (* 0-25)"

[[record]]
molecule = "Cc1cc(COc2ccc(-c3cccc4nc(NC(=O)C5CC5)nn34)cc2)no1"
readout = "Microsomal Stability Rat (%)"
experimental_value = "* (* 0-25)"

[[record]]
molecule = "O=C(Nc1nc2cccc(-c3ccc(CC(=O)N4CCS(=O)(=O)CC4)cc3)n2n1)C1CC1"
readout = "Microsomal Stability Rat (%)"
experimental_value = "**** (**** 76-100)"

[[record]]
molecule = "O=C(Nc1nc2cccc(-c3ccc(NCc4ccccc4)cc3)n2n1)C1CC1"
readout = "Microsomal Stability Rat (%)"
experimental_value = "* (* 0-25)"

[[record]]
molecule = "O=C(Nc1nc2cccc(-c3ccc(CNc4c(F)cccc4F)cc3)n2n1)C1CC1"
readout = "Microsomal Stability Rat (%)"
experimental_value = "* (* 0-25)"

[[record]]
molecule = "O=C(Nc1nc2cccc(-c3ccc(C(=O)N4CCCC4)cc3)n2n1)C1CC1"
readout = "Microsomal Stability Rat (%)"
experimental_value = "*** (*** 51-75)"

[[record]]
molecule = "O=C(Nc1nc2cccc(-c3ccc(C(=O)N4CCCC(C(F)(F)F)C4)cc3)n2n1)C1CC1 (stereo not drawn)"
readout = "Microsomal Stability Rat (%)"
experimental_value = "** (** 26-50)"

[[record]]
molecule = "O=C(Nc1nc2cccc(-c3ccc(C(=O)N4CCN(c5cccc(Cl)c5)CC4)cc3)n2n1)C1CC1"
readout = "Microsomal Stability Rat (%)"
experimental_value = "*** (*** 51-75)"

[[record]]
molecule = "O=C(Nc1nc2cccc(-c3ccc(OCc4ncon4)cc3)n2n1)C1CC1"
readout = "Microsomal Stability Rat (%)"
experimental_value = "* (* 0-25)"

